Provenance of the data: paper PMC12724200

Examples of compounds with documented LC50/MIC follow.
tested on: A549; conditions: human

{"columns": ["compound", "assay.target", "test.result"],
 "data": [
  ["CO[C@H]1/C=C/O[C@@]2(C)Oc3c(C)c(O)c4c(O)c(c(/C=N/N5CCN(C)CC5)c(O)c4c3C2=O)NC(=O)/C(C)=C\\C=C\\[C@H](C)[C@H](O)[C@@H](C)[C@@H](O)[C@@H](C)[C@H](OC(C)=O)[C@@H]1C [RFP, rifampicin]", "A549", "44,510"],
  ["[H]/N=C(/N)N[C@H]1[C@H](O)[C@@H](O)[C@H](O[C@@H]2O[C@@H](C)[C@](O)(C=O)[C@H]2O[C@@H]2O[C@@H](CO)[C@H](O)[C@@H](O)[C@@H]2NC)[C@@H](N/C(N)=N\\[H])[C@@H]1O [SM, streptomycin]", "A549", "31,350"],
  ["CC(=O)N[C@@H]1[C@@H](O)[C@H](O)[C@@H](CO)O[C@H]1SC(=S)N(C)C [OCT313]", "A549", 188],
  ["CC[C@@H](CO)NCCN[C@@H](CC)CO [EB, ethambutol]", "A549", "1,434"]
]}

Continue with the next compound.
Exercise: For the compound NNC(=O)c1ccncc1 [INH, isoniazid] , report LC50/MIC.
Solution: 77,277

====

target: L. mesenteroides PTA (Leuconostoc mesenteroides)
Sequence (Q03W64 1-326): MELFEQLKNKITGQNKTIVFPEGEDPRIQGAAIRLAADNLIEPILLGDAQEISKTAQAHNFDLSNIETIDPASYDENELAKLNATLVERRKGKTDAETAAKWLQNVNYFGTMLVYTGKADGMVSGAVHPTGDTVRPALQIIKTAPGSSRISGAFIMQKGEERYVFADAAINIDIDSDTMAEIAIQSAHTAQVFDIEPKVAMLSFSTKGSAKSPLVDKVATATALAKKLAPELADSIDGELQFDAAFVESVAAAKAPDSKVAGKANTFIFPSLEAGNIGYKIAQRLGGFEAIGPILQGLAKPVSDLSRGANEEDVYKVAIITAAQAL
property.label: pIC50
Just so you know, pIC50 here is -log10 of the concentration in molar units; reply with that number alone.

Exercise: // fetch pIC50; item: CCN1C(=O)C=CC1=O [NEM, N-ethylmaleimide] ; system: L. mesenteroides PTA (Leuconostoc mesenteroides)
Solution: 4.29

====

tested on: A549; settings: human
property.label: 85% survival conc. (µg/mL)
Supply the numeric figure in µg/mL, leaving out any unit text.

{"columns": ["structure.notation", "85% survival conc., µg/mL"],
 "data": [
  ["CO[C@H]1/C=C/O[C@@]2(C)Oc3c(C)c(O)c4c(O)c(c(/C=N/N5CCN(C)CC5)c(O)c4c3C2=O)NC(=O)/C(C)=C\\C=C\\[C@H](C)[C@H](O)[C@@H](C)[C@@H](O)[C@@H](C)[C@H](OC(C)=O)[C@@H]1C", 10]
]}

Continue with the next compound.
Exercise: For the compound CC(=O)N[C@@H]1[C@@H](O)[C@H](O)[C@@H](CO)O[C@H]1SC(=S)N(C)C , report 85% survival conc..
Solution: 500

====

tested on: MRC-5; details: human
property.label: 85% survival conc. (µg/mL)
Supply the numeric figure in µg/mL, leaving out any unit text.

Consider the worked cases shown below.
{"columns": ["structure.notation", "85% survival conc., µg/mL"],
 "data": [
  ["CC[C@@H](CO)NCCN[C@@H](CC)CO", 250],
  ["CO[C@H]1/C=C/O[C@@]2(C)Oc3c(C)c(O)c4c(O)c(c(/C=N/N5CCN(C)CC5)c(O)c4c3C2=O)NC(=O)/C(C)=C\\C=C\\[C@H](C)[C@H](O)[C@@H](C)[C@@H](O)[C@@H](C)[C@H](OC(C)=O)[C@@H]1C", 10]
]}

Exercise: For the molecule NNC(=O)c1ccncc1 , report 85% survival conc..
Solution: 250
